Property: log10 of EC50; scope: individual compounds
- System: Rhizoctonia solani
- EXPERIMENT_SUMMARY: Fungicidal activity against Rhizoctonia solani assessed as inhibition of mycelium growth by mycelium growth rate test
- Format: functional, organism-based
QUANTITY: log10 of EC50 (log10 of the value in µg/mL)

>  <COMPOUND>
O=C1CCCCCCCCCCC(NS(=O)(=O)c2ccccc2)CCCO1 (stereo unspecified)

>  <EXPERIMENTAL_SYSTEM>
Rhizoctonia solani

>  <log10 of EC50>
0.38

$$$$
>  <COMPOUND>
O=C1CCCCCCCCCCC(NS(=O)(=O)c2ccccc2[N+](=O)[O-])CCCO1 (stereo unspecified)

>  <EXPERIMENTAL_SYSTEM>
Rhizoctonia solani

>  <log10 of EC50>
1.35

$$$$
>  <COMPOUND>
O=C1CCCCCCCCCCC(NS(=O)(=O)c2ccc(F)cc2)CCCO1 (stereo unspecified)

>  <EXPERIMENTAL_SYSTEM>
Rhizoctonia solani

>  <log10 of EC50>
0.65

$$$$
>  <COMPOUND>
O=C1CCCCCCCCCCC(NS(=O)(=O)c2ccc(Cl)cc2)CCCN1 (stereo unspecified)

>  <EXPERIMENTAL_SYSTEM>
Rhizoctonia solani

>  <log10 of EC50>
1.29

$$$$
>  <COMPOUND>
COC(=O)c1ccccc1S(=O)(=O)NC1CCCCCCCCCCC(=O)NCCC1 (stereo unspecified)

>  <EXPERIMENTAL_SYSTEM>
Rhizoctonia solani

>  <log10 of EC50>
1.11

$$$$
>  <COMPOUND>
CC1CCC(NS(=O)(=O)c2ccccc2)CCCCCCCCCCC(=O)O1 (stereo unspecified)

>  <EXPERIMENTAL_SYSTEM>
Rhizoctonia solani

>  <log10 of EC50>
1.71

$$$$
>  <COMPOUND>
Cc1ccc(S(=O)(=O)NCCN2CCCCCCCCCCCC2=O)cc1

>  <EXPERIMENTAL_SYSTEM>
Rhizoctonia solani

>  <log10 of EC50>
0.94

$$$$
>  <COMPOUND>
Cc1ccc(S(=O)(=O)NC2CCCCCCCCCCC(=O)OCCC2)cc1 (stereo unspecified)

>  <EXPERIMENTAL_SYSTEM>
Rhizoctonia solani

>  <log10 of EC50>
0.57

$$$$
>  <COMPOUND>
COC(=O)Nc1nc2ccccc2[nH]1

>  <EXPERIMENTAL_SYSTEM>
Rhizoctonia solani

>  <log10 of EC50>
0.18

$$$$
>  <COMPOUND>
Cc1ccc(S(=O)(=O)NC2CCCCCCCCCCC(=O)OC(C)CC2)cc1 (stereo unspecified)

>  <EXPERIMENTAL_SYSTEM>
Rhizoctonia solani

>  <log10 of EC50>
1.76

$$$$
>  <COMPOUND>
O=C1CCCCCCCCCCC(NS(=O)(=O)Cc2ccccc2)CCCO1 (stereo unspecified)

>  <EXPERIMENTAL_SYSTEM>
Rhizoctonia solani

>  <log10 of EC50>
1.72

$$$$

---

- Test system: Rhizoctonia solani
- EXPERIMENT_SUMMARY: Fungicidal activity against Rhizoctonia solani assessed as inhibition of mycelium growth by mycelium growth rate test
- Assay type: functional, organism-based
QUANTITY: log10 of EC50 (log10 of the value in µg/mL)

>  <MOLECULE>
O=C1CCCCCCCCCCCN1CCNS(=O)(=O)c1cc(Cl)ccc1Cl

>  <EXPERIMENTAL_SYSTEM>
Rhizoctonia solani

>  <log10 of EC50>
0.72

$$$$
>  <MOLECULE>
COC(=O)c1ccccc1S(=O)(=O)NC1CCCCCCCCCCC(=O)OC(C)CC1 (configuration not stated)

>  <EXPERIMENTAL_SYSTEM>
Rhizoctonia solani

>  <log10 of EC50>
1.73

$$$$
>  <MOLECULE>
CC1CCC(NS(=O)(=O)c2ccc(Cl)cc2)CCCCCCCCCCC(=O)O1 (configuration not stated)

>  <EXPERIMENTAL_SYSTEM>
Rhizoctonia solani

>  <log10 of EC50>
1.84

$$$$
>  <MOLECULE>
COC(=O)c1ccccc1S(=O)(=O)NC1CCCCCCCCCCC(=O)OCCC1 (configuration not stated)

>  <EXPERIMENTAL_SYSTEM>
Rhizoctonia solani

>  <log10 of EC50>
1.32

$$$$
>  <MOLECULE>
O=C1CCCCCCCCCCCN1CCNS(=O)(=O)c1ccc(Cl)cc1

>  <EXPERIMENTAL_SYSTEM>
Rhizoctonia solani

>  <log10 of EC50>
1.27

$$$$
>  <MOLECULE>
CC1CCC(NS(=O)(=O)c2cccc([N+](=O)[O-])c2)CCCCCCCCCCC(=O)O1 (configuration not stated)

>  <EXPERIMENTAL_SYSTEM>
Rhizoctonia solani

>  <log10 of EC50>
1.93

$$$$
>  <MOLECULE>
CC1CCC(NS(=O)(=O)Cc2ccccc2)CCCCCCCCCCC(=O)O1 (configuration not stated)

>  <EXPERIMENTAL_SYSTEM>
Rhizoctonia solani

>  <log10 of EC50>
1.45

$$$$
>  <MOLECULE>
CS(=O)(=O)NC1CCCCCCCCCCC(=O)NCCC1 (configuration not stated)

>  <EXPERIMENTAL_SYSTEM>
Rhizoctonia solani

>  <log10 of EC50>
1.65

$$$$
>  <MOLECULE>
Cc1ccc(S(=O)(=O)NC2CCCCCCCCCCC(=O)NCCC2)cc1 (configuration not stated)

>  <EXPERIMENTAL_SYSTEM>
Rhizoctonia solani

>  <log10 of EC50>
1.13

$$$$
>  <MOLECULE>
O=C1CCCCCCCCCCC(NS(=O)(=O)c2cccs2)CCCN1 (configuration not stated)

>  <EXPERIMENTAL_SYSTEM>
Rhizoctonia solani

>  <log10 of EC50>
1.26

$$$$
>  <MOLECULE>
O=C1CCCCCCCCCCC(NS(=O)(=O)c2ccccc2[N+](=O)[O-])CCCN1 (configuration not stated)

>  <EXPERIMENTAL_SYSTEM>
Rhizoctonia solani

>  <log10 of EC50>
1.33

$$$$
>  <MOLECULE>
CC1CCC(NS(=O)(=O)c2ccc(F)cc2)CCCCCCCCCCC(=O)O1 (configuration not stated)

>  <EXPERIMENTAL_SYSTEM>
Rhizoctonia solani

>  <log10 of EC50>
1.40

$$$$
>  <MOLECULE>
CC1CCC(NS(=O)(=O)c2ccccc2[N+](=O)[O-])CCCCCCCCCCC(=O)O1 (configuration not stated)

>  <EXPERIMENTAL_SYSTEM>
Rhizoctonia solani

>  <log10 of EC50>
1.97

$$$$
>  <MOLECULE>
CC1CCC(NS(=O)(=O)c2ccccc2Cl)CCCCCCCCCCC(=O)O1 (configuration not stated)

>  <EXPERIMENTAL_SYSTEM>
Rhizoctonia solani

>  <log10 of EC50>
1.58

$$$$
>  <MOLECULE>
O=C1CCCCCCCCCCC(NS(=O)(=O)c2cccs2)CCCO1 (configuration not stated)

>  <EXPERIMENTAL_SYSTEM>
Rhizoctonia solani

>  <log10 of EC50>
0.71

$$$$
>  <MOLECULE>
O=C1CCCCCCCCCCCN1CCNS(=O)(=O)c1ccccc1

>  <EXPERIMENTAL_SYSTEM>
Rhizoctonia solani

>  <log10 of EC50>
1.06

$$$$
>  <MOLECULE>
O=C1CCCCCCCCCCC(NS(=O)(=O)Cc2ccccc2)CCCN1 (configuration not stated)

>  <EXPERIMENTAL_SYSTEM>
Rhizoctonia solani

>  <log10 of EC50>
0.91

$$$$
>  <MOLECULE>
O=C1CCCCCCCCCCC(NS(=O)(=O)c2ccc(Cl)cc2)CCCO1 (configuration not stated)

>  <EXPERIMENTAL_SYSTEM>
Rhizoctonia solani

>  <log10 of EC50>
0.52

$$$$
>  <MOLECULE>
O=C1CCCCCCCCCCC(NS(=O)(=O)c2cc(Cl)ccc2Cl)CCCO1 (configuration not stated)

>  <EXPERIMENTAL_SYSTEM>
Rhizoctonia solani

>  <log10 of EC50>
1.45

$$$$
>  <MOLECULE>
CS(=O)(=O)NC1CCCCCCCCCCC(=O)OCCC1 (configuration not stated)

>  <EXPERIMENTAL_SYSTEM>
Rhizoctonia solani

>  <log10 of EC50>
1.09

$$$$
>  <MOLECULE>
O=C1CCCCCCCCCCC(NS(=O)(=O)c2ccccc2Cl)CCCN1 (configuration not stated)

>  <EXPERIMENTAL_SYSTEM>
Rhizoctonia solani

>  <log10 of EC50>
1.77

$$$$
>  <MOLECULE>
O=C1CCCCCCCCCCC(NS(=O)(=O)c2ccc(F)cc2)CCCN1 (configuration not stated)

>  <EXPERIMENTAL_SYSTEM>
Rhizoctonia solani

>  <log10 of EC50>
1.56

$$$$
